Reported Specificity for SSAO vs. MAO-A values follow for various compounds
molecular target: recombinant human MAO-A (Homo sapiens); construct: purchased BD Biosciences (MA, USA); assay: Inhibition of MAO-A activity, colorimetric; format: biochemical; conditions: ratio IC50 MAO-A to IC50 SSAO
Structures can show the parent of a compound that is named as a salt.
ENDPOINT_LABEL: Specificity for SSAO vs. MAO-A

compound="NOCC(O)c1ccccc1 (stereo not drawn) [Example 11, Hydrochloride]" endpoint_label="Specificity for SSAO vs. MAO-A" reported=5000
compound=C=C(CNN)c1ccc(Cl)cc1.Cl endpoint_label="Specificity for SSAO vs. MAO-A" reported=20
compound=C=C(CNNC)c1ccc(F)cc1.Cl endpoint_label="Specificity for SSAO vs. MAO-A" reported=230
compound=C=C(CN(C)NC)c1ccc(Cl)cc1.Cl endpoint_label="Specificity for SSAO vs. MAO-A" reported=64
compound=C=C(CN(N)CC)c1ccc(Cl)cc1.Cl endpoint_label="Specificity for SSAO vs. MAO-A" reported=726
compound=C=C(CN(C)N)c1ccc(Cl)cc1.Cl endpoint_label="Specificity for SSAO vs. MAO-A" reported=400
compound=Cl.NNC/C(=C/F)c1ccccc1 endpoint_label="Specificity for SSAO vs. MAO-A" reported=43
compound=C=C(CNN)c1ccc(F)cc1.Cl endpoint_label="Specificity for SSAO vs. MAO-A" reported=69

* * *

Reported IC50 values follow for various compounds
Target: recombinant human MAO-A (Homo sapiens, UniProt P21397)
Construct: purchased BD Biosciences (MA, USA)
Sequence (P21397 1-527): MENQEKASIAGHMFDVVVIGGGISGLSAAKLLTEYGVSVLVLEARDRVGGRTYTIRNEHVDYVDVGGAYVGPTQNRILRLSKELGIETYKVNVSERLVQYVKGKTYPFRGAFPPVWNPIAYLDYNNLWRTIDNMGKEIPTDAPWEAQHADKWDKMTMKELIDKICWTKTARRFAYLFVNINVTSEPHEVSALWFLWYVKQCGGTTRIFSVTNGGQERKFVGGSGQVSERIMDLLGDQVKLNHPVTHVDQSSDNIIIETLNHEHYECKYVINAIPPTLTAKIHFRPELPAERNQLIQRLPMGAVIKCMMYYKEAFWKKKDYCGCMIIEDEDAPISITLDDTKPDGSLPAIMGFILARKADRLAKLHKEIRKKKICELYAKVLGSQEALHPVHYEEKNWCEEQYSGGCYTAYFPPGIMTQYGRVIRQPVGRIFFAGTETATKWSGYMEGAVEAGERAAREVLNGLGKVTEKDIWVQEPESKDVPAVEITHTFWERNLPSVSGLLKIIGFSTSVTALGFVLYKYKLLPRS
Test: Inhibition of MAO-A activity, colorimetric
Assay type: biochemical
Details: tyramine substrate, no pre-incubation; read-out: MAO-A Inhibitory Activity IC50
ENDPOINT_LABEL: IC50 (nM)

compound="Cl.NNC/C(=C/F)c1ccccc1 [Example 10, Hydrochloride]" unit_info=nM reported=2800
compound="C=C(CNN)c1ccc(Cl)cc1.Cl [Example 3, Hydrochloride]" unit_info=nM reported=1000
compound="C=C(CNN)c1ccc(F)cc1.Cl [Example 8, Hydrochloride]" unit_info=nM reported=2200

* * *

biological target: recombinant human MAO-B (Homo sapiens); experiment: Inhibition of MAO-B activity, colorimetric
Where a name gives a salt, the structure may show the parent alone.
Class (required): determined from IC50; valid ranges are lowest: < 20 µM; middle: ≥ 20 µM and < 200 µM; highest: ≥ 200 µM

compound="C=C(CN(N)CC)c1ccc(Cl)cc1.Cl [Example 5, Hydrochloride]" target_desc="recombinant human MAO-B (Homo sapiens)" assigned_class=middle
compound="C=C(CN(C)NC)c1ccc(Cl)cc1.Cl [Example 6, Hydrochloride]" target_desc="recombinant human MAO-B (Homo sapiens)" assigned_class=lowest
compound="C=C(CNNC)c1ccc(F)cc1.Cl [Example 7, Hydrochloride]" target_desc="recombinant human MAO-B (Homo sapiens)" assigned_class=highest
compound="C=C(CON)c1ccccc1 [Example 1, Hydrochloride]" target_desc="recombinant human MAO-B (Homo sapiens)" assigned_class=middle
compound="C=C(CNN)c1ccccc1 [Example 2, Hydrochloride]" target_desc="recombinant human MAO-B (Homo sapiens)" assigned_class=middle
compound="C=C(CN(C)N)c1ccc(Cl)cc1.Cl [Example 4, Hydrochloride]" target_desc="recombinant human MAO-B (Homo sapiens)" assigned_class=middle
compound="Cl.NNC/C(=C/F)c1ccccc1 [Example 10, Hydrochloride]" target_desc="recombinant human MAO-B (Homo sapiens)" assigned_class=lowest
compound="C=C(CNN)c1ccc(Cl)cc1.Cl [Example 3, Hydrochloride]" target_desc="recombinant human MAO-B (Homo sapiens)" assigned_class=middle
compound="COc1ccc(C(O)CON)cc1OC (stereo not drawn) [Example 12, Hydrochloride]" target_desc="recombinant human MAO-B (Homo sapiens)" assigned_class=highest
compound="C=C(CNN)c1ccc(F)cc1.Cl [Example 8, Hydrochloride]" target_desc="recombinant human MAO-B (Homo sapiens)" assigned_class=middle
compound="NOCC(O)c1ccccc1 (stereo not drawn) [Example 11, Hydrochloride]" target_desc="recombinant human MAO-B (Homo sapiens)" assigned_class=highest

* * *

Reported LD50 at 7 days values follow for various molecules
assay: Acute toxicity studies in mice; format: in vivo; settings: female, C57B1/6, mouse, in vivo, ip, single i.p. injection, Day 7 values, read-out: LD50 intraperitoneal
ENDPOINT_LABEL: LD50 at 7 days (mg/kg)

molecule=C=C(CNN)c1ccc(F)cc1.Cl endpoint_label="LD50 at 7 days" unit_info=mg/kg reported=350
molecule="NC/C(=C/F)CCc1ccc(F)cc1 [Mofegiline, mofegiline, reference compound]" endpoint_label="LD50 at 7 days" unit_info=mg/kg reported=200
molecule=Cl.NNC/C(=C/F)c1ccccc1 endpoint_label="LD50 at 7 days" unit_info=mg/kg reported=250

* * *

target: recombinant human MAO-B (Homo sapiens, UniProt P27338); construct: purchased BD Biosciences (MA, USA); experiment: Inhibition of MAO-B activity, colorimetric; type: biochemical; details: ratio IC50 MAO-B to IC50 SSAO
Sequence (P27338 whole entry): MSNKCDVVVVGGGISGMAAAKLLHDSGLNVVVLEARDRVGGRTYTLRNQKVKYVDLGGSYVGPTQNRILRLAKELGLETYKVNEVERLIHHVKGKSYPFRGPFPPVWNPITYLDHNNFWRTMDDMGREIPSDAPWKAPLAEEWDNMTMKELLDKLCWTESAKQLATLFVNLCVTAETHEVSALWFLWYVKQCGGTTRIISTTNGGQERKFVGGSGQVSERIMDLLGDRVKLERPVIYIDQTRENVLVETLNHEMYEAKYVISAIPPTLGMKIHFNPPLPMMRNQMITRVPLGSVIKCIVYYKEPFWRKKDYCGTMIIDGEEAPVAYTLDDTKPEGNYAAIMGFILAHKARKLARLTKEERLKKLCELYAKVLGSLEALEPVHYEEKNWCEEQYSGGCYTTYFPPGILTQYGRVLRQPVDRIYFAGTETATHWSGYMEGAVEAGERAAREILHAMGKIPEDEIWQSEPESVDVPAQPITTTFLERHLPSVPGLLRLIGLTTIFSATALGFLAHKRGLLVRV
Where a name gives a salt, the structure may show the parent alone.
ENDPOINT_LABEL: Specificity for SSAO vs. MAO-B

compound="COc1ccc(C(O)CON)cc1OC (stereo not shown) [Example 12, Hydrochloride]" endpoint_label="Specificity for SSAO vs. MAO-B" reported=90,000
compound=C=C(CNN)c1ccc(F)cc1.Cl endpoint_label="Specificity for SSAO vs. MAO-B" reported=2,500
compound="C=C(CNN)c1ccccc1 [Example 2, Hydrochloride]" endpoint_label="Specificity for SSAO vs. MAO-B" reported=2,900
compound="C=C(CON)c1ccccc1 [Example 1, Hydrochloride]" endpoint_label="Specificity for SSAO vs. MAO-B" reported=4,300

* * *

Target: recombinant human MAO-A (Homo sapiens, UniProt P21397)
Construct: purchased BD Biosciences (MA, USA)
Sequence (P21397 1-527): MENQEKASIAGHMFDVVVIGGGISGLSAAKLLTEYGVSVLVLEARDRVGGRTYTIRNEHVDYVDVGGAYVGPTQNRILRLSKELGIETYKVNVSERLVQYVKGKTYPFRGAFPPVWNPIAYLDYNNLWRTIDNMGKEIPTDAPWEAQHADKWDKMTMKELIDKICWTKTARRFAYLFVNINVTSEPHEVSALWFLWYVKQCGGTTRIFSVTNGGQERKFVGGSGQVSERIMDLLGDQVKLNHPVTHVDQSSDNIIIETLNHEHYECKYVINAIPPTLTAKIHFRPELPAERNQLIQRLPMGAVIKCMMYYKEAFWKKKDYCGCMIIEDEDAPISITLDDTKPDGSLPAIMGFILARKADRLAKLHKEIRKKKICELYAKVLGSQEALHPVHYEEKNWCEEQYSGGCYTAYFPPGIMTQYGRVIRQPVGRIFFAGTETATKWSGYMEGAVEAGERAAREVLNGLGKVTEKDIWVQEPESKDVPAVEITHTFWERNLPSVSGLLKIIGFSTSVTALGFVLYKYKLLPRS
Assay: Inhibition of MAO-A activity, colorimetric
Assay type: biochemical
Conditions: ratio IC50 MAO-A to IC50 SSAO
Where a name gives a salt, the structure may show the parent alone.
ENDPOINT_LABEL: Specificity for SSAO vs. MAO-A

molecule="COc1ccc(C(O)CON)cc1OC (stereo not shown) [Example 12, Hydrochloride]" reported=400,000
molecule="C=C(CNN)c1ccccc1 [Example 2, Hydrochloride]" reported=6,400
molecule="C=C(CON)c1ccccc1 [Example 1, Hydrochloride]" reported=31,000
molecule="C=C(C)CNN.Cl [Example 9, (2-methyl-allyl)hydrazine Hydrochloride]" reported=6,300
